src = the Immune Epitope Database (IEDB)

- TESTED_ON: HLA-A*11:01
- ASSAY_PROCEDURE: IEDB peptide-MHC binding, purified MHC/competitive/radioactivity; filed as Kd, often an IC50 or EC50 that approximates it; bounds were set here for any values at or beyond the usual limits of such assays
- TEST_PARAMETERS: source organism: Hepatitis C virus (isolate 1)
OUTCOME_MEASURE: Kd (nM)

>>> reported_value("ATDALMTGY")
19.6

====

- TESTED_ON: HLA-A*68:02
- ASSAY_PROCEDURE: IEDB peptide-MHC binding, purified MHC/competitive/radioactivity; filed as Kd, often an IC50 or EC50 that approximates it; bounds were set here for any values at or beyond the usual limits of such assays
- TEST_PARAMETERS: source organism: Lassa virus Josiah
pKd: −log10 of the molar value.
OUTCOME_MEASURE: pKd

>>> reported_value("RLLGTFTWTL")
"≤ 5.30"

====

- TESTED_ON: HLA-B*27:05
- ASSAY_PROCEDURE: IEDB peptide-MHC binding, purified MHC/direct/fluorescence; filed as Kd, often an IC50 or EC50 that approximates it; bounds were set here for any values at or beyond the usual limits of such assays
- TEST_PARAMETERS: source organism: Listeria monocytogenes
OUTCOME_MEASURE: Kd

>>> reported_value("EIEIEKNKK")
"≥ 20 µM"

====

Catalogue of sequences with associated Kd
- TESTED_ON: HLA-A*26:01
- ASSAY_PROCEDURE: IEDB peptide-MHC binding, purified MHC/direct/fluorescence; filed as Kd, often an IC50 or EC50 that approximates it; bounds were set here for any values at or beyond the usual limits of such assays
- TEST_PARAMETERS: source organism: Vibrio vulnificus
OUTCOME_MEASURE: Kd

>>> reported_value("GSEVPGFCH")
"≥ 20 µM"
>>> reported_value("NGYRWQHQI")
"≥ 20 µM"

====

- TESTED_ON: HLA-B*15:01
- ASSAY_PROCEDURE: IEDB peptide-MHC binding, purified MHC/competitive/fluorescence; filed as Kd, often an IC50 or EC50 that approximates it; bounds were set here for any values at or beyond the usual limits of such assays
- TEST_PARAMETERS: source organism: Burkholderia vietnamiensis G4
OUTCOME_MEASURE: Kd

>>> reported_value("PLFKRGWRL")
"≥ 20 µM"

====

- TESTED_ON: HLA-A*26:01
- ASSAY_PROCEDURE: IEDB peptide-MHC binding, purified MHC/direct/fluorescence; filed as Kd, often an IC50 or EC50 that approximates it; bounds were set here for any values at or beyond the usual limits of such assays
- TEST_PARAMETERS: source organism: West Nile virus
pKd: −log10 of the molar value.
OUTCOME_MEASURE: pKd

>>> reported_value("LTKEEFTRY")
5.97

====

- TESTED_ON: HLA-B*15:01
- ASSAY_PROCEDURE: IEDB peptide-MHC binding, purified MHC/direct/fluorescence; filed as Kd, often an IC50 or EC50 that approximates it; bounds were set here for any values at or beyond the usual limits of such assays
- TEST_PARAMETERS: source organism: Homo sapiens
pKd: −log10 of the molar value.
OUTCOME_MEASURE: pKd

>>> reported_value("LVMAPRTVL")
6.14
